Value source: ChEMBL document CHEMBL2346651

- assaySystem: Substance-K receptor (Homo sapiens) (UniProt P21452)
- Sequence (whole entry): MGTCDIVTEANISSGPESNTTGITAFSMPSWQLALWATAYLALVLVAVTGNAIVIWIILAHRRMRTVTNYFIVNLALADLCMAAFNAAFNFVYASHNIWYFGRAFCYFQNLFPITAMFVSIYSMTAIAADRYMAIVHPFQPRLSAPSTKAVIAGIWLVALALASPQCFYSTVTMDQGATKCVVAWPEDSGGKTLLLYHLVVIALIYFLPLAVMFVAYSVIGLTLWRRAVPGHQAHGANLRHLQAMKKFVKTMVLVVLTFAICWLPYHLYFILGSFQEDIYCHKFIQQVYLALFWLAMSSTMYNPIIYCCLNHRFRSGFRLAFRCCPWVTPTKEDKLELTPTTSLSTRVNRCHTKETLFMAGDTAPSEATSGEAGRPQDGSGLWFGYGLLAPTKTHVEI
- methodNotes: Displacement of [125I]-NKA from NK2R (unknown origin) transfected in CHO cells at 10 uM by gamma counting analysis
- Format: cell-based
Residues, ends and D or L forms follow the SMILES beside them.
resultType: inhibition (%)
Enter your answer as a number in %; do not include the unit.

CSCC[C@H](NC(=O)[C@H](CC(C)C)NC(=O)CNC(=O)[C@H](Cc1ccccc1)N(C)C(=O)[C@H](Cc1ccccc1)NC(=O)[C@H](CO)NC(=O)[C@H](CC(=O)O)NC(=O)[C@H](Cc1cnc[nH]1)NC(=O)[C@H](CCSC)NC(=O)[C@@H](N)CC(=O)O)C(N)=O (HELM PEPTIDE1{D.M.H.D.S.F.[meF].G.L.M.[am]}$$$$V2.0) ... 31

Proceed to the following item.
Sample CSCC[C@H](NC(=O)[C@H](CC(C)C)NC(=O)CNC(=O)[C@H](Cc1ccccc1)N(C)C(=O)[C@H](Cc1ccccc1)NC(=O)[C@H](Cc1cnc[nH]1)NC(=O)[C@H](CC(=O)O)NC(=O)[C@H](Cc1cnc[nH]1)NC(=O)[C@H](CCSC)NC(=O)[C@@H](N)CC(=O)O)C(N)=O (HELM PEPTIDE1{D.M.H.D.H.F.[meF].G.L.M.[am]}$$$$V2.0) — what was its inhibition?
47

====

compounds and their reported pIC50
- assaySystem: Neuromedin-K receptor (Homo sapiens)
- Sequence (P29371 whole entry): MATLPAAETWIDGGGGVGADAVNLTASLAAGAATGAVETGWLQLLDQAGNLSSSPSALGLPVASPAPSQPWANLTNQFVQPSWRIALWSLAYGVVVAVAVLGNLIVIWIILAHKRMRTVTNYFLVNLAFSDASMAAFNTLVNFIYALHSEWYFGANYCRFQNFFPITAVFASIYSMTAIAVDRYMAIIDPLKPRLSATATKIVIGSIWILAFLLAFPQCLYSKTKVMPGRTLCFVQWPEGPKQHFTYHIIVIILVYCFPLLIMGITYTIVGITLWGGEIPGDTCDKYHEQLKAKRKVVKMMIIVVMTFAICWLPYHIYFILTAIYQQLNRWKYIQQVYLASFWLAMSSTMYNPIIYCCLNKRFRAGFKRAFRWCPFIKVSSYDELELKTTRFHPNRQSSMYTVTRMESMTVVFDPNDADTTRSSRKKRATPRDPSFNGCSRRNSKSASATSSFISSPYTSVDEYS
- methodNotes: Displacement of ([125I]-His3, MePhe7)-NKB from NK3R (unknown origin) transfected in CHO cells by gamma counting analysis
Residues, ends and D or L forms follow the SMILES beside them.
Scale for pIC50: -log10 of concentration given in mol/L; no unit attached.

CSCC[C@H](NC(=O)[C@H](CC(C)C)NC(=O)CNC(=O)[C@H](Cc1ccccc1)N(C)C(=O)[C@H](Cc1ccccc1)NC(=O)[C@H](CCC(=O)O)NC(=O)[C@H](CC(=O)O)NC(=O)[C@H](Cc1cnc[nH]1)NC(=O)[C@H](CCSC)NC(=O)[C@@H](N)CC(=O)O)C(N)=O (HELM PEPTIDE1{D.M.H.D.E.F.[meF].G.L.M.[am]}$$$$V2.0) ... 8.12
CSCC[C@H](NC(=O)[C@H](CC(C)C)NC(=O)CNC(=O)[C@@H](NC(=O)[C@H](Cc1ccccc1)NC(=O)[C@H](CCC(=O)O)NC(=O)[C@H](CC(=O)O)NC(=O)[C@@H]1CCCN1C(=O)[C@H](CC(N)=O)NC(=O)[C@@H]1CCCN1C(=O)[C@@H]1CCC(=O)N1)C(C)C)C(N)=O (HELM PEPTIDE1{[Glp].P.N.P.D.E.F.V.G.L.M.[am]}$$$$V2.0) ... 7.28

Sample CSCC[C@H](NC(=O)[C@H](CC(C)C)NC(=O)CNC(=O)[C@H](Cc1ccccc1)N(C)C(=O)[C@H](Cc1ccccc1)NC(=O)[C@H](CCC(N)=O)NC(=O)[C@H](CC(=O)O)NC(=O)[C@H](CO)NC(=O)[C@H](CCCCN)NC(=O)[C@@H]1CCCN1C(=O)[C@@H](NC(=O)[C@@H](N)CC(=O)O)C(C)C)C(N)=O (HELM PEPTIDE1{D.V.P.K.S.D.Q.F.[meF].G.L.M.[am]}$$$$V2.0) — what was its pIC50?
7.89
